- System: E31 (patient-derived glioblastoma stem cells of proneural subtype)
- Assay Text: surviving fraction (nuclei count normalised to DMSO); higher = more cells surviving (less toxic)
- Test Context: 1000 nM; exposure time: 72 h
Structures can show the parent of a compound that is named as a salt.
Each record here notes measured surviving fraction.
Give a plain numeric answer without units written out.

{"Molecule": "CCC1=C[C@@H]2CN(C1)Cc1c([nH]c3ccccc13)[C@@](C(=O)OC)(c1cc3c(cc1OC)N(C)[C@H]1[C@@](O)(C(=O)OC)[C@H](OC(C)=O)[C@]4(CC)C=CCN5CC[C@]31[C@@H]54)C2 [Vinorelbine Tartrate]", "surviving fraction": 0.126}

Fill: surviving fraction (E31) for this molecule Nc1ccn([C@@H]2O[C@H](CO)[C@@H](O)[C@@H]2O)c(=O)n1
0.127

Fill: surviving fraction (E31) for this molecule O=C(Oc1cccc2cccnc12)c1ccccc1
1.04

Fill: surviving fraction (E31) for this molecule CN[C@@H]1[C@@H](O)[C@@H](O[C@@H]2[C@@H](O)[C@H](O[C@H]3OC(CN)=CC[C@H]3N)[C@@H](N)C[C@H]2N)OC[C@]1(C)O [Sisomicin sulfate]
0.979

Fill: surviving fraction (E31) for this molecule NC(=O)c1cccc2cn(-c3ccc([C@@H]4CCCNC4)cc3)nc12
0.886

Fill: surviving fraction (E31) for this molecule OC[C@H]1O[C@@H](Oc2ccc(O)cc2)[C@H](O)[C@@H](O)[C@@H]1O
1.13

Fill: surviving fraction (E31) for this molecule COc1ccc([C@@H]2CC(=O)c3c(O)cc(O[C@@H]4O[C@H](CO[C@@H]5O[C@@H](C)[C@H](O)[C@@H](O)[C@H]5O)[C@@H](O)[C@H](O)[C@H]4O)cc3O2)cc1O
1.04

Fill: surviving fraction (E31) for this molecule OCCN1C[C@H](O)[C@@H](O)[C@H](O)[C@H]1CO
1.17

Fill: surviving fraction (E31) for this molecule Nc1ncnc2c1c(-c1ccc(Oc3ccccc3)cc1)cn2C1CCCC1
0.936

Fill: surviving fraction (E31) for this molecule Nc1ccn([C@H]2CC[C@@H](CO)O2)c(=O)n1
0.885

Fill: surviving fraction (E31) for this molecule NCc1ccccc1CC(=O)N[C@@H]1C(=O)N2C(C(=O)O)=C(CSc3nnnn3CC(=O)O)CS[C@H]12 [Ceforanide]
0.895

Fill: surviving fraction (E31) for this molecule CO[C@H]1C(=O)[C@]2(C)[C@@H](OC)C[C@H]3OC[C@@]3(OC(C)=O)[C@H]2[C@H](OC(=O)c2ccccc2)[C@]2(O)C[C@H](OC(=O)[C@H](O)[C@@H](NC(=O)OC(C)(C)C)c3ccccc3)C(C)=C1C2(C)C
0.218

Fill: surviving fraction (E31) for this molecule CC[C@@]1(O)C(=O)OCc2c1cc1n(c2=O)Cc2cc3c(CN(C)C)c(O)ccc3nc2-1
0.17

Fill: surviving fraction (E31) for this molecule CC(C)C[C@H](NC(=O)CNC(=O)c1cc(Cl)ccc1Cl)B1OC(=O)C(CC(=O)O)(CC(=O)O)O1
0.00335

---

- Tested on: E31
- Assay Text: phenotypic distance (Euclidean, principal components) from DMSO controls (arbitrary units); higher = stronger morphological change
- Test Context: 111.1111111 nM; exposure time: 72 h
Each record here notes measured phenotypic distance.
Give a plain numeric answer without units written out.

Guide cases for phenotypic distance, answers given:
{"Compound": "O=[N+]([O-])c1ccc2c(c1)S(=O)(=O)C=C2", "phenotypic distance": 1.51}
{"Compound": "Cc1[nH]nc(C(F)(F)F)c1Cc1sc2c(c1C(=O)N1C[C@](C)(O)CO1)c(=O)n(C)c(=O)n2C(C)C", "phenotypic distance": 1.4}
{"Compound": "CC(C)C[C@H](NC(=O)[C@H](Cc1ccccc1)NC(=O)c1cnccn1)B(O)O", "phenotypic distance": 21.4}
{"Compound": "CC(C)(C)CC(C)(C)c1ccc(OCCOCC[N+](C)(C)Cc2ccccc2)cc1 [Benzethonium chloride]", "phenotypic distance": 0.714}

// below: phenotypic distance requested for another compound
Provide measured phenotypic distance value, entry: O=C(O)c1ccc(-c2c[nH]c3ncc(-c4ccccc4)cc23)cc1C1CCCC1
0.662
